- experiment: Nitroreductase enzyme assay with SN 23862 as substrate (HPLC)
- Assay type: biochemical
- condition_parameters: Table 6
reported_metric: SN 23862 acitvity

>>> reading("H. pylori: nitroreductase from Helicobacter pylori, SEQ ID NO: 29 (protein, listed as Helicobacter pylori) MKFLDQEKRRQLLNERHSCKMFDSHYEFSSEELEEIAEIARLSPSSYNTQPWHFVMVTNKDLKKQIAAHSYFNEEMIKSASALMVVCSLKPSELLPTGHYMQNLYPESYKVRVIPSFAQMLGVRFNHSMQKLESYILEQCYIAVGQICMGVSLMGLDSCIIGGFDPLKVGEVLEERINKPKIACLIALGKRVAEASQKSRKSKVDAITWL")
"Weak"
